Recorded Kd, one value per entry.
# Test target: T1, GST-PTPL1 PDZ domain 2 (Homo sapiens (Human)), Q12923
# T1 chain: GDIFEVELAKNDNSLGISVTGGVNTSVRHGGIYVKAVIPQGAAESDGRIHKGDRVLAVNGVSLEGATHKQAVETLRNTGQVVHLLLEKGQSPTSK
# Experiment description: G assay titration, PDZ 5 ug/ml
Attribute measured: Kd (nM)

> print(dat)
                                     binder  recorded.measurement
1  VGTLLLERVIFPSVKIATLV (modifications not checked) [AdenoE4 typ9]                   200
2  IVTVVTMVTNVDFPPKESSL (modifications not checked) [ActRIIA]                  5000
